Numbers sourced from patent US20180071242A1.

assay: Metabolic stability measured in human liver microsomes; format: in vitro ADME; details: human, pH 7.4, human liver microsomes, Phase I + II, read-out: CLint (μl/min/mg) Phase I + II

>  <compound>
C[C@](O)(COc1ccc(C#N)cc1)C(=O)Nc1ccc(C#N)c(Cl)c1 [S-(I)]

>  <unit-label>
µL/min/mg

>  <microsomal CLint at 0.6 μM>
2

$$$$

###

target: CYP2C19 (Homo sapiens, UniProt P33261); assay: CYP inhibition screening, recombinant enzyme (fluorescent-based) assay
Sequence (P33261 whole entry): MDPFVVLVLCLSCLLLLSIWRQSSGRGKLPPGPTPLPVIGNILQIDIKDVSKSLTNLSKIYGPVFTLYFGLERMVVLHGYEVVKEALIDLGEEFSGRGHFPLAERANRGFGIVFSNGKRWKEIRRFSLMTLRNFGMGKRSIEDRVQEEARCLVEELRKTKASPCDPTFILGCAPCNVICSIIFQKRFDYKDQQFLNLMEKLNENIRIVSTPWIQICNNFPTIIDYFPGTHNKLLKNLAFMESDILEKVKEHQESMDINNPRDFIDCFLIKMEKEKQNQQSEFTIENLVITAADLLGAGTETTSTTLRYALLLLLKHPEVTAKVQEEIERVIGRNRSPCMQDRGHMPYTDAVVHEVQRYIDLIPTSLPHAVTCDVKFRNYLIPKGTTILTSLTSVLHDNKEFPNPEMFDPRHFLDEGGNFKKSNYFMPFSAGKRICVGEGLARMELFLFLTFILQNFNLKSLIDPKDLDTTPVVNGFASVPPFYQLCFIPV
pIC50: −log10 of the molar value.
parameter-measured: pIC50

>  <substance-smiles>
C[C@](O)(COc1ccc(F)cc1)C(=O)Nc1ccc(C#N)c(C(F)(F)F)c1

>  <assayed-target>
CYP2C19 (Homo sapiens, UniProt P33261)

>  <readout-qualifier>
=

>  <endpoint-value>
7.00

$$$$
>  <substance-smiles>
C[C@](O)(COc1ccc(Cl)cc1)C(=O)Nc1ccc(C#N)c(C(F)(F)F)c1

>  <assayed-target>
CYP2C19 (Homo sapiens, UniProt P33261)

>  <readout-qualifier>
=

>  <endpoint-value>
7.00

$$$$
>  <substance-smiles>
C[C@](O)(COc1ccc(C#N)cc1)C(=O)Nc1ccc(C#N)c(Cl)c1

>  <assayed-target>
CYP2C19 (Homo sapiens, UniProt P33261)

>  <readout-qualifier>
<

>  <endpoint-value>
4.70

$$$$
